Quick list: Kp per entry.
Assay: in vivo brain penetration, brain and plasma levels by LC/MS/MS
Conditions: mouse, po, mice, cassette dosed orally at 2.5 mg/kg, read-out: Brain:Plasma Ratio
Procedure: Select compounds were chosen for in vivo studies to determine penetration into the CNS. Compounds were cassette dosed orally at 2.5 mg/kg in mice. Brain and plasma samples were collected at 1, 2, 4, and 24 hours post dose and samples were analyzed by LC/MS/MS (Table 5, below). Unperfused brains were used which contain a blood volume of approximately 4%.

Consider the worked cases shown below.
[[record]]
compound = "O=C(Nc1ccc(OC(F)F)nc1)N1CCN(c2ncnc3c2nc(-c2ccccc2Cl)n3-c2ccc(Cl)cc2)CC1 [Compound 44]"
recorded_result = 0.18

[[record]]
compound = "Clc1ccc(-n2c(-c3ccccc3Cl)nc3c(N4CCN(Cc5ccccc5Cl)CC4)ncnc32)cc1 [Compound 98]"
recorded_result = 0.06

[[record]]
compound = "N=C(NC1CCN(c2ncnc3c2nc(-c2ccccc2Cl)n3-c2ccc(Cl)cc2)CC1)c1ccc(F)cc1 [Compound 26]"
recorded_result = 0.16

[[record]]
compound = "O=C(Nc1ccccc1F)NC1CCN(c2ncnc3c2nc(-c2ccccc2Cl)n3-c2ccc(Cl)cc2)CC1 [Compound 19]"
recorded_result = 0.03


Shift focus to the following entry.
Q: I have this compound here, Clc1ccc(-n2c(-c3ccccc3Cl)nc3c(N4CCN(Cc5cccc(Cl)c5)CC4)ncnc32)cc1 [Compound 99] , and I need its recorded Kp.
Result: 0.09

====

Property: melting point

Study these solved cases before continuing.
[[record]]
compound = "Cc1cc(-n2c(-c3ccccc3Cl)nc3c(N4CCN(Cc5ccccc5Cl)CC4)ncnc32)no1 [Compound 49]"
property = "melting point"
recorded_result = "79 to 81 °C"

[[record]]
compound = "FC(F)Oc1ccc(-n2c(-c3ccccc3Cl)nc3c(N4CCN(Cc5ccccc5Cl)CC4)ncnc32)cn1 [Compound 46]"
property = "melting point"
recorded_result = "147 to 149 °C"

[[record]]
compound = "O=C(Nc1ccc(F)cc1F)NC1CCN(c2ncnc3c2nc(-c2ccccc2Cl)n3-c2ccc(Cl)cc2)CC1 [Compound 22]"
property = "melting point"
recorded_result = "140 to 142 °C"

[[record]]
compound = "CC1(NC(=O)NC2CCN(c3ncnc4c3nc(-c3ccccc3Cl)n4-c3ccc(Cl)cc3)CC2)CCC(F)(F)CC1 [Compound 126]"
property = "melting point"
recorded_result = "160 to 162 °C"


Q: Sample O=C(Nc1ccc(OC(F)F)nc1)N1CCN(c2ncnc3c2nc(-c2ccccc2Cl)n3-c2ccc(Cl)cc2)CC1 [Compound 44] — what was its melting point?
Result: 118 to 120 °C

Q: Fill in: melting point of N#Cc1ccccc1CN1CCN(c2ncnc3c2nc(-c2ccccc2Cl)n3-c2ccc(Cl)cc2)CC1 [Compound 75] is ___
Result: 127 to 128 °C

Q: Value lookup for melting point; key = FC(F)(F)Oc1ccccc1CN1CCN(c2ncnc3c2nc(-c2ccccc2Cl)n3-c2ccc(Cl)cc2)CC1 [Compound 112]
Result: 110 to 111 °C

====

Target: hCB2 (Homo sapiens, UniProt P34972)
Sequence (P34972 whole entry): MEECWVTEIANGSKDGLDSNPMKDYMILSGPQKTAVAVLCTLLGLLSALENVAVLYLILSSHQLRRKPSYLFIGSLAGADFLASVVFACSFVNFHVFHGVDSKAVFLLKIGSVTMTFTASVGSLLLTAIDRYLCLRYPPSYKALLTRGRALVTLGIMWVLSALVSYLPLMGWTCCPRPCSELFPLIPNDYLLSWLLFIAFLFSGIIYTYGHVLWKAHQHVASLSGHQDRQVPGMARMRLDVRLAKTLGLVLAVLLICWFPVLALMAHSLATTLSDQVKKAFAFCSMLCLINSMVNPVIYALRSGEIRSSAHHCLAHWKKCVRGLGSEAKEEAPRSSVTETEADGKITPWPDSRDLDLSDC
Assay: radioligand displacement binding at CB2 ([3H]CP55940, membranes of CHO-K1 cells over-expressing receptor)
Settings: read-out: Binding affinity (Ki) at hCB2; displacement of [3H]CP55940, CHO-K1 membranes; average of 3-6 measurements
Binary call on Ki with cut-off 1000 nM: strictly below means rule met, and equality or higher means rule not met.

Some solved entries appear below for comparison.
[[record]]
compound = "O=C(Nc1ccccc1)N1CCN(c2ncnc3c2nc(-c2ccccc2Cl)n3-c2ccc(Cl)cc2)CC1"
qualitative_label = "rule not met"

[[record]]
compound = "O=C(NC1CCCC1)N1CCN(c2ncnc3c2nc(-c2ccccc2Cl)n3-c2ccc(Cl)cc2)CC1"
qualitative_label = "rule met"

[[record]]
compound = "O=C(Nc1ccc(F)c(F)c1)N1CCN(c2ncnc3c2nc(-c2ccccc2Cl)n3-c2ccc(Cl)cc2)CC1"
qualitative_label = "rule not met"


Consider the record given below.
Q: Decide: Ki of CCCCS(=O)(=O)N1CCN(c2ncnc3c2nc(-c2ccccc2Cl)n3-c2ccc(Cl)cc2)CC1 strictly below 1000 nM?
Result: rule met

====

Entries and their MDCK BBB Assay (Basolateral/Apical Peak Area Ratio) Mean
Tested on: MDCK
Test: MDCK BBB Assay
Assay type: in vitro ADME
Details: MDCK cells
Respond with the number and no other words.

[[record]]
compound = "O=S(=O)(NC1CCN(c2ncnc3c2nc(-c2ccccc2Cl)n3-c2ccc(Cl)cc2)CC1)c1ccc(F)cc1"
recorded_result = 0.0006

[[record]]
compound = "O=S(=O)(NC1CCN(c2ncnc3c2nc(-c2ccccc2Cl)n3-c2ccc(Cl)cc2)CC1)c1ccc(F)c(F)c1"
recorded_result = 0

[[record]]
compound = "CC(C)S(=O)(=O)N1CCN(c2ncnc3c2nc(-c2ccccc2Cl)n3-c2ccc(Cl)cc2)CC1"
recorded_result = 0.000


Q: Look up MDCK BBB Assay (Basolateral/Apical Peak Area Ratio) Mean for this molecule: Clc1ccc(-n2c(-c3ccccc3Cl)nc3c(N4CCC(Nc5ccccc5)CC4)ncnc32)cc1
Result: 0

Q: Suppose we examine the molecule CCCCC(=O)NC1CCN(c2ncnc3c2nc(-c2ccncc2C)n3-c2ccc(Cl)cc2)CC1 ; what MDCK BBB Assay (Basolateral/Apical Peak Area Ratio) Mean value has been reported?
Result: 0.379

Q: Entry under review: CCCCS(=O)(=O)N1CCN(c2ncnc3c2nc(-c2ccccc2Cl)n3-c2ccc(Cl)cc2)CC1 . Reported MDCK BBB Assay (Basolateral/Apical Peak Area Ratio) Mean?
Result: 0.053

Q: What measured MDCK BBB Assay (Basolateral/Apical Peak Area Ratio) Mean goes with CCCCC(=O)NC1CCN(c2ncnc3c2nc(-c2ccncc2Cl)n3-c2ccc(Cl)cc2)CC1 ?
Result: 0.409

====

Molecular target: hCB1 (Homo sapiens)
Sequence (P21554 whole entry): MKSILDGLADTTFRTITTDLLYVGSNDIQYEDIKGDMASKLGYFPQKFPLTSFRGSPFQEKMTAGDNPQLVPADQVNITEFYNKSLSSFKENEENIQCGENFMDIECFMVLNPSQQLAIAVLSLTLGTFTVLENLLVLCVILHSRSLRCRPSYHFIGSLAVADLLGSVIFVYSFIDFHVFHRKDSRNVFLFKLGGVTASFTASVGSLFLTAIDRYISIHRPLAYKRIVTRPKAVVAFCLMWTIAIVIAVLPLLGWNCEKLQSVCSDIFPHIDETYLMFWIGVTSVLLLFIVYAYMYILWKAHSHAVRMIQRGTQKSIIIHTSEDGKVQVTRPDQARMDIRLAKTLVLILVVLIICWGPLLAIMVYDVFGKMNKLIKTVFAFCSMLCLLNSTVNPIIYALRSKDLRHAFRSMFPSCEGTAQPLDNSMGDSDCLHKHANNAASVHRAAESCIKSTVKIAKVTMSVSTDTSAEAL
Test: functional fluorescent CB1 activated Gαq16-coupled intracellular calcium mobilization assay in CHO-K1 cells
Type: cell-based
Design: expressed in transfected cells; host or cells: CHO-K1 (membranes)
Conditions: average of 3-6 measurements, read-out: Apparent antagonist dissociation constant (Ke) at hCB1
Property: log10(Kb) (log10 of the value in nM)
Scale: log10; quantity: Kb; unit before log: nM

[[record]]
compound = "Fc1ccc(CNC2CCN(c3ncnc4c3nc(-c3ccccc3Cl)n4-c3ccc(Cl)cc3)CC2)cc1"
recorded_result = 1.91


Q: Observed log10(Kb) on hCB1 (Homo sapiens) for Clc1ccc(-n2c(-c3ccccc3Cl)nc3c(N4CCC(NCc5ccccc5)CC4)ncnc32)cc1 , please.
Result: 1.77

Q: Form entry - test system: hCB1 (Homo sapiens); read-out: log10(Kb); compound: NC(=O)c1ccc(-n2c(-c3ccccc3Cl)nc3c(N4CCN(Cc5ccccc5Cl)CC4)ncnc32)cc1
Result: 2.64

Q: Item: N=C(NC1CCN(c2ncnc3c2nc(-c2ccccc2Cl)n3-c2ccc(Cl)cc2)CC1)c1ccc(F)cc1 Test system: hCB1 (Homo sapiens) Read-out: log10(Kb) Value: ?
Result: 1.64

Q: Could you share what log10(Kb) was measured for N=C(Nc1ccc(F)cc1)NC1CCN(c2ncnc3c2nc(-c2ccccc2Cl)n3-c2ccc(Cl)cc2)CC1 , tested on hCB1 (Homo sapiens)?
Result: 2.78

====

Target: hCB2 (Homo sapiens)
Experiment: radioligand displacement binding at CB2 ([3H]CP55940, membranes of CHO-K1 cells over-expressing receptor)
Property: pKi
Reminder that pKi is minus the log10 of a molar concentration.

Q: So what's the measured pKi for this one? O=C(N1CCN(c2ncnc3c2nc(-c2ccccc2Cl)n3-c2ccc(Cl)cc2)CC1)C(F)(F)F
Result: 6.87

Q: Looking for the measured pKi of FC(F)(F)Oc1ccccc1CN1CCN(c2ncnc3c2nc(-c2ccccc2Cl)n3-c2ccc(Cl)cc2)CC1 , can you help?
Result: 4.12

Q: Which value of pKi has been reported for O=S(=O)(NC1CCN(c2ncnc3c2nc(-c2ccccc2Cl)n3-c2ccc(Cl)cc2)CC1)c1ccc(F)cc1F in the records?
Result: 4.28

Q: What value of pKi has been recorded for this entry: CN(Cc1ccccc1)C1CCN(c2ncnc3c2nc(-c2ccccc2Cl)n3-c2ccc(Cl)cc2)CC1
Result: 5.39

Q: // query pKi value for entry N#Cc1ccc(N2CCN(c3ncnc4c3nc(-c3ccccc3Cl)n4-c3ccc(Cl)cc3)CC2)nc1
Result: 6.32

Q: Look up pKi for this molecule: FC(F)Oc1ccc(-n2c(-c3ccccc3Cl)nc3c(N4CCN(Cc5ccccc5Cl)CC4)ncnc32)cn1
Result: 6.62

Q: // lookup pKi for CC(C)CS(=O)(=O)N1CCN(c2ncnc3c2nc(-c2ccccc2Cl)n3-c2ccc(Cl)cc2)CC1
Result: 5.55

Q: Returns the measured pKi for the input molecule. Input: CCCCC(=O)NC1(c2ccccc2)CCN(c2ncnc3c2nc(-c2ccncc2Cl)n3-c2ccc(Cl)cc2)CC1
Result: 6.08

Q: Which pKi is reported for this molecule? CCCCC(=O)NC1(c2ccccc2)CCN(c2ncnc3c2nc(-c2ccncc2)n3-c2ccc(Cl)cc2)CC1
Result: 5.80
